Each recorded value in this set is attributed to the supplement of paper PMC9732359.

Catalogue of protein stability index readings, one per entry.
- Assay text: protein stability index of a GFP-peptide fusion (yeast GPS) (PSI 1-4); higher = more stable; sorted into four equal gates, so the index is relative within each strain
- Condition notes: ubr1∆
Parameter measured: protein stability index

[[record]]
sequence = "EQDPYSNASQMGNTGSG [RPB3]"
reported_result = 2.95

[[record]]
sequence = "DTGTLDTKSVVGLVMFS [RPN2]"
reported_result = 2.42

[[record]]
sequence = "YKIKGRNNSKSVLLKKL [SRP72]"
reported_result = 1.06

[[record]]
sequence = "DLEHKEDCVEEFFHLQH [QCR6]"
reported_result = 3.37

[[record]]
sequence = "DNEEWMNDVINTEEVNR [LIN1]"
reported_result = 3.39

[[record]]
sequence = "NGNITYSEEPREKVRKL [FAS2]"
reported_result = 3.53

[[record]]
sequence = "IELIDYDKLPAGQNATV [RET1]"
reported_result = 2.4

[[record]]
sequence = "SGKSNILDAICFVLGIA [SMC2]"
reported_result = 1.82

[[record]]
sequence = "SNVFGSNNSTTNTFGSN [YJL041W/NSP1]"
reported_result = 3.47

[[record]]
sequence = "KHYKNIPRNSPLSDLKK [RPC82]"
reported_result = 2.97

[[record]]
sequence = "NVFARLSRLLSLWEVFQ [RPC82]"
reported_result = 2.38

[[record]]
sequence = "LHPYNSRGLFEKKLMQD [YDL116W/NUP84]"
reported_result = 2.91

